# Tested on: human liver microsomes, metabolic stability half-life
# ASSAY_INFO: NCATS Human Liver Microsomal (HLM) Stability Profiling
# CONDITION_LABEL: higher = more stable; screened at 1 µM (by protocol)
# Protocol: Assay submitter (PI): Dr. Pranav Shah NIH Center for Advancing Translational Sciences Pharmacokinetic issues were the leading cause of drug attrition, accounting for approximately 40% of all cases before the turn of the century. […] The substrate depletion method, also called the in vitro t1/2 method was used to analyze test compounds. […] Sample quantification and analysis was performed using a previously described method (Shah et al., 2016, Siramshetty et al., 2020). […]
Hi, to clarify the labels: True covers half-life from 40 min upward, False covers anything below 40 min.

{"columns": ["MOLECULE", "CATEGORY_LABEL"],
 "data": [
  ["Cc1cc2c(cc1S(N)(=O)=O)S(=O)(=O)CCC2", "True"],
  ["Cc1ncc(Cl)cc1NCc1ccc(C(=O)NC(CC2CCCC2)C(=O)NC2CC2)s1 (centres undefined)", "False"],
  ["CCC(=O)N[C@@H]1Cc2ccccc2[C@H](c2ccccc2)C1", "True"],
  ["CCOC(=O)c1ccc(O)cc1", "True"],
  ["CC(C)(C)Oc1ccc(OCC2Cc3ccccc3CN2C(=O)c2cccc3ccccc23)cc1 (centres undefined)", "False"],
  ["CN(C)S(=O)(=O)c1ccc(S(=O)(=O)N(Cc2ccccc2Cl)C[C@@H]2CCCO2)cc1", "False"],
  ["CC1(C#N)CCN(c2c(C(=O)N3CCC(S(C)(=O)=O)CC3)cnc3cc(F)c(F)cc23)CC1", "True"],
  ["O=C(NC1CCN(CCCCC2(C(=O)NCC(F)(F)F)c3ccccc3-c3ccccc32)CC1)c1ccccc1-c1ccc(C(F)(F)F)cc1", "False"],
  ["CC(=O)OCC(=O)[C@@]12OC(C)(C)O[C@@H]1C[C@H]1[C@@H]3C[C@H](F)C4=CC(=O)C=C[C@]4(C)[C@@]3(F)[C@@H](O)C[C@@]12C", "True"],
  ["O=C(NC1CC1)C1CCCN1C(=O)c1cccc(-c2ccccn2)c1 (centres undefined)", "True"],
  ["CN(C)CCN(Cc1ccc(Cl)cc1)c1ccccn1", "False"],
  ["CC[C@@H]([C@H](C)O)n1ncn(-c2ccc(N3CCN(c4ccc(OC[C@@H]5CO[C@@](Cn6cncn6)(c6ccc(F)cc6F)C5)cc4)CC3)cc2)c1=O", "True"],
  ["CCN1CCCC1CNC(=O)c1cc(S(=O)(=O)CC)c(N)cc1OC (centres undefined)", "True"],
  ["O=c1c2cccnc2n(-c2cccc([N+](=O)[O-])c2)c(=O)n1Cc1ccncc1", "False"],
  ["C[C@@H]1O[C@@H](O[C@H]2C[C@@H](O)[C@]3(CO)[C@H]4[C@H](O)C[C@]5(C)[C@@H](C6=CC(=O)OC6)CC[C@]5(O)[C@@H]4CC[C@]3(O)C2)[C@H](O)[C@H](O)[C@H]1O", "True"],
  ["CC(C)COC(=O)c1ccc(N)cc1", "False"],
  ["CN(C)Cc1c(C(=O)NCCOc2ccc(C(=O)NO)cc2)oc2ccccc12", "True"],
  ["O=C(Nc1ccc(-c2ccnc(Nc3ccc(N4CCOCC4)cc3)n2)cc1)C1CCCN1 (centres undefined)", "True"],
  ["N#Cc1cnc2cnc(NCc3cccnc3)cc2c1Nc1ccc(F)c(Cl)c1", "False"],
  ["C/C(=C(/OCCOc1ccc(Cl)cc1)c1ccc(Cl)cc1Cl)n1ccnc1", "False"],
  ["CCOc1cc(CC(=O)N[C@@H](CC(C)C)c2ccccc2N2CCCCC2)ccc1C(=O)O", "True"],
  ["CCOC(=O)c1ncn2c1CN(C)C(=O)c1c(I)cccc1-2", "True"],
  ["CCC1=c2cc(OC(=O)N3CCC(N4CCCCC4)CC3)ccc2=NC2=C3C=C4C(COC(=O)[C@]4(O)CC)C(=O)N3CC21 (some centres undefined)", "True"],
  ["Cc1ccccc1C(=O)Nc1cccc(-c2nc3cccnc3s2)c1", "False"],
  ["O=C(O)Cn1nnc(-c2cc(N3CCC(Oc4cc(F)ccc4Br)CC3)no2)n1", "True"],
  ["O=c1[nH]c([C@@H]2CCCN2)nc2c1oc1ccc(Cl)cc12", "True"],
  ["Cn1cc(-c2[nH]c3cc(NC(=O)[C@H](N)C4CCCCC4)cc4c3c2C=NNC4=O)cn1", "True"],
  ["CC(C)CCn1c(CN2CCN(C(=O)C(C)C)CC2)nc2c1c(=O)n(C)c(=O)n2C", "True"],
  ["Cc1ccc(-c2c(-c3nn(C)c4ncnc(N5CCC(N6CCCCC6)C5)c34)cnn2C)cc1 (centres undefined)", "True"],
  ["c1cc(-c2cc(C3CCNCC3)[nH]n2)ccn1", "True"],
  ["C[C@]12CCC(=O)C=C1[C@@H]1C[C@@H]1[C@H]1[C@@H]3[C@@H]4C[C@@H]4[C@@]4(CCC(=O)O4)[C@@]3(C)CC[C@@H]12", "True"],
  ["Cc1cc(=O)n(-c2ccccc2)n1C", "True"],
  ["CN1CCN(C(=O)c2ccc3nccn3c2)CC1", "True"],
  ["CCn1c(C(=O)NCc2ccccc2Cl)cc2sc(Cl)cc21", "False"],
  ["O=C(OC1C[C@@H]2CC3C[C@H](C1)N2CC3=O)c1c[nH]c2ccccc12 (some centres undefined)", "False"],
  ["O=C(CCC1CCN(Cc2ccccc2)CC1)c1ccc2c(c1)NCCCC2", "False"],
  ["N#Cc1ccnc(Nc2cc(C3CCN(C4COC4)CC3)cc(N3CCC(F)(F)C3)n2)c1", "False"],
  ["CC(C)COC[C@H](CN(Cc1ccccc1)c1ccccc1)N1CCCC1", "False"],
  ["C[C@@H]1CCC[C@H](C)N1CCCC(O)(c1ccccc1)c1ccccn1 (some centres undefined)", "True"]
]}
